Source: patent US11426412B2

Parameter pIC50: see the listing below.
Molecular target: PAD4 (Homo sapiens (Human))
Sequence (Q9UM07 whole entry): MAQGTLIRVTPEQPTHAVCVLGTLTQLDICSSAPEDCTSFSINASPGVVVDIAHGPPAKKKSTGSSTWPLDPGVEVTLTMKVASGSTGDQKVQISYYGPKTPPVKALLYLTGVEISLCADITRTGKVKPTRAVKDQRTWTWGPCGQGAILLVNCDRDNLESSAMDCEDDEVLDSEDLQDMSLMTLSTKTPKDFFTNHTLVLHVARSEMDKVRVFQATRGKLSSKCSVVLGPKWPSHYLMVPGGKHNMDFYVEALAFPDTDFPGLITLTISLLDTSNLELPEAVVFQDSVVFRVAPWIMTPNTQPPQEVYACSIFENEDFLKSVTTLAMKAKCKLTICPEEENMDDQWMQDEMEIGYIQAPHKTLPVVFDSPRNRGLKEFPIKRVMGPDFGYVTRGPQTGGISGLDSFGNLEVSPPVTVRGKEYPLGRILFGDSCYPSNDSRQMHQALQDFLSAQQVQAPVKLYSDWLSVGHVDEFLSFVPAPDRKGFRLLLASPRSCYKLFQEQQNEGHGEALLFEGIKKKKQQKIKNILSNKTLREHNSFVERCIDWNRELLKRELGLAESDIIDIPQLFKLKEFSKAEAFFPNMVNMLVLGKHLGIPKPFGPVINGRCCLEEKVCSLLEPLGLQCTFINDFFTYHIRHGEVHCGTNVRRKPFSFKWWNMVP
Assay: Ammonia release biochemical assay (citrullination)
Details: read-out: NH3 release biochemical assay PAD4 IC50
pIC50: −log10 of the molar value. Counter-ions that a name gives are not always drawn.

- Compound: "COc1ccc(Cn2c(-c3nc4cc(C(=O)N5CCC[C@@H](N)C5)ccn4c3C)cc3ccccc32)nc1"
  Target or test system: "PAD4 (Homo sapiens (Human))"
  pIC50: "> 6.00"
- Compound: "Cc1cccc2cc(-c3nc4cc(C(=O)N5CCC[C@@H](N)C5)ccn4c3C)n(CC3CC3)c12"
  Target or test system: "PAD4 (Homo sapiens (Human))"
  pIC50: "> 6.00"
- Compound: "COc1ccc2cc(-c3nc4cc(C(=O)N5CCC[C@@H](N)C5)ccn4c3C)n(Cc3ccncc3)c2c1"
  Target or test system: "PAD4 (Homo sapiens (Human))"
  pIC50: "< 5.00"
- Compound: "Cc1c(-c2cc3ccccc3n2Cc2cncnc2)nc2cc(C(=O)N3CCC[C@@H](N)C3)ccn12 [Compound 58, Trifluoroacetic Acid Salt]"
  Target or test system: "PAD4 (Homo sapiens (Human))"
  pIC50: "> 6.00"
- Compound: "Cc1c(-c2cc3ccccc3n2CC2CCC2)nc2cc(C(=O)N3CCC[C@@H](N)C3)ccn12"
  Target or test system: "PAD4 (Homo sapiens (Human))"
  pIC50: "> 6.00"
- Compound: "CCn1c(-c2nc3cc(C(=O)N4CCC[C@@H](N)C4)ccn3c2C)cc2ccc(F)cc21"
  Target or test system: "PAD4 (Homo sapiens (Human))"
  pIC50: "> 6.00"
- Compound: "COc1cc(Cn2c(-c3nc4cc(C(=O)N5CCC[C@@H](N)C5)ccn4c3C)cc3ccccc32)ccc1F"
  Target or test system: "PAD4 (Homo sapiens (Human))"
  pIC50: "> 6.00"
- Compound: "Cc1c(-c2cc3ccccc3n2Cc2ccoc2)nc2cc(C(=O)N3CCC[C@@H](N)C3)ccn12"
  Target or test system: "PAD4 (Homo sapiens (Human))"
  pIC50: "> 6.00"
- Compound: "Cc1c(-c2c(Br)c3ccccc3n2CC2CC2)nc2cc(C(=O)N3CCC[C@@H](N)C3)ccn12"
  Target or test system: "PAD4 (Homo sapiens (Human))"
  pIC50: "< 5.00"
- Compound: "Cc1ncc(Cn2c(-c3nc4cc(C(=O)N5CCC[C@@H](N)C5)ccn4c3C)cc3ccccc32)s1"
  Target or test system: "PAD4 (Homo sapiens (Human))"
  pIC50: "> 6.00"
- Compound: "Cc1c(-c2cc3ccc(F)cc3n2CC(C)C)nc2cc(C(=O)N3CCC[C@@H](N)C3)ccn12"
  Target or test system: "PAD4 (Homo sapiens (Human))"
  pIC50: "> 6.00"
- Compound: "N[C@@H]1CCCN(C(=O)c2ccn3c(-c4ccccc4)c(-c4cc5ccccc5n4CC4CC4)nc3c2)C1"
  Target or test system: "PAD4 (Homo sapiens (Human))"
  pIC50: "< 5.00"
- Compound: "CCn1c(-c2nc3cc(C(=O)N4CCC[C@@H](N)C4)ccn3c2C)cc2cc(F)ccc21"
  Target or test system: "PAD4 (Homo sapiens (Human))"
  pIC50: "> 6.00"
- Compound: "CCn1c(-c2nc3cc(C(=O)N4CCC[C@@H](N)C4)ccn3c2C)cc2ccccc21"
  Target or test system: "PAD4 (Homo sapiens (Human))"
  pIC50: "> 6.00"
- Compound: "Cc1c(-c2cc3cccc(Cl)c3n2CC2CC2)nc2cc(C(=O)N3CCC[C@@H](N)C3)ccn12"
  Target or test system: "PAD4 (Homo sapiens (Human))"
  pIC50: "> 6.00"
- Compound: "Cc1c(-c2cc3cc(F)ccc3n2CC2CC2)nc2cc(C(=O)N3CCC[C@@H](N)C3)ccn12"
  Target or test system: "PAD4 (Homo sapiens (Human))"
  pIC50: "> 6.00"
- Compound: "Cc1c(-c2cc3ccc(F)cc3n2Cc2ccc(F)cc2)nc2cc(C(=O)N3CCC[C@@H](N)C3)ccn12"
  Target or test system: "PAD4 (Homo sapiens (Human))"
  pIC50: "> 6.00"
- Compound: "COc1ccc2cc(-c3nc4cc(C(=O)N5CCC[C@@H](N)C5)ccn4c3C)n(Cc3cccnc3)c2c1"
  Target or test system: "PAD4 (Homo sapiens (Human))"
  pIC50: "> 6.00"
- Compound: "COc1ccc(Cn2c(-c3nc4cc(C(=O)N5CCC[C@@H](N)C5)ccn4c3C)cc3ccc(F)cc32)cc1"
  Target or test system: "PAD4 (Homo sapiens (Human))"
  pIC50: "> 6.00"
- Compound: "COc1cccc(Cn2c(-c3nc4cc(C(=O)N5CCC[C@@H](N)C5)ccn4c3C)cc3cc(F)ccc32)c1"
  Target or test system: "PAD4 (Homo sapiens (Human))"
  pIC50: "> 6.00"
- Compound: "CCn1c(-c2nc3cc(C(=O)N4CCC[C@@H](N)C4)ccn3c2C)c(-c2ccccc2)c2ccccc21"
  Target or test system: "PAD4 (Homo sapiens (Human))"
  pIC50: "< 5.00"
- Compound: "Cc1c(-c2cc3ccccc3n2Cc2ccccn2)nc2cc(C(=O)N3CCC[C@@H](N)C3)ccn12"
  Target or test system: "PAD4 (Homo sapiens (Human))"
  pIC50: "> 6.00"
- Compound: "Cc1c(-c2cc3ccc(F)cc3n2Cc2ccncc2)nc2cc(C(=O)N3CCC[C@@H](N)C3)ccn12"
  Target or test system: "PAD4 (Homo sapiens (Human))"
  pIC50: "> 6.00"
- Compound: "Cc1c(-c2cc3ccccc3n2Cc2ccsc2)nc2cc(C(=O)N3CCC[C@@H](N)C3)ccn12"
  Target or test system: "PAD4 (Homo sapiens (Human))"
  pIC50: "> 6.00"
- Compound: "Cc1c(-c2cc3ccccc3n2Cc2ccc(F)cc2)nc2cc(C(=O)N3CCC[C@@H](N)C3)ccn12"
  Target or test system: "PAD4 (Homo sapiens (Human))"
  pIC50: "> 6.00"
- Compound: "CCn1c(-c2nc3cc(C(=O)N4CC[C@@H](N)C4)ccn3c2C)c(-c2ccccc2)c2ccccc21"
  Target or test system: "PAD4 (Homo sapiens (Human))"
  pIC50: "< 5.00"
- Compound: "Cc1c(-c2cc3ccccc3n2Cc2cccc(F)c2)nc2cc(C(=O)N3CCC[C@@H](N)C3)ccn12"
  Target or test system: "PAD4 (Homo sapiens (Human))"
  pIC50: "> 6.00"
- Compound: "Cc1csc(Cn2c(-c3nc4cc(C(=O)N5CCC[C@@H](N)C5)ccn4c3C)cc3ccccc32)n1"
  Target or test system: "PAD4 (Homo sapiens (Human))"
  pIC50: "> 6.00"
- Compound: "COc1ccc2cc(-c3nc4cc(C(=O)N5CCC[C@@H](N)C5)ccn4c3C)n(Cc3ccc(F)cc3)c2c1"
  Target or test system: "PAD4 (Homo sapiens (Human))"
  pIC50: "> 6.00"

---

Reported IC50 values for a set of compounds
Target: PAD4 (Homo sapiens (Human))
Test: Ammonia release biochemical assay (citrullination)
Details: read-out: NH3 release biochemical assay PAD4 IC50
Reported property: IC50

- Compound: "CCn1c(-c2nc3cc(C(=O)N4CC[C@@H](N)C4)ccn3c2C)cc2ccccc21 [Compound 7]"
  Reported property: "IC50"
  Endpoint value: "> 10000 nM"
- Compound: "COc1cccc(Cn2c(-c3nc4cc(C(=O)N5CCC[C@@H](N)C5)ccn4c3C)cc3ccc(F)cc32)c1 [Compound 70]"
  Reported property: "IC50"
  Endpoint value: "< 1000 nM"
- Compound: "COc1cccc(Cn2c(-c3nc4cc(C(=O)N5CCC[C@@H](N)C5)ccn4c3C)cc3cc(F)c(F)cc32)c1 [Compound 55]"
  Reported property: "IC50"
  Endpoint value: "< 1000 nM"
- Compound: "Cc1c(-c2cc3ccccc3n2CC(C)C)nc2cc(C(=O)N3CCC[C@@H](N)C3)ccn12 [Compound 60]"
  Reported property: "IC50"
  Endpoint value: "< 1000 nM"
- Compound: "Cc1c(-c2cc3ccccc3n2C)nc2cc(C(=O)N3CCC[C@@H](N)C3)ccn12 [Compound 46]"
  Reported property: "IC50"
  Endpoint value: "> 10000 nM"
- Compound: "Cc1c(-c2cc3cc(F)ccc3n2Cc2ccncc2)nc2cc(C(=O)N3CCC[C@@H](N)C3)ccn12 [Compound 74]"
  Reported property: "IC50"
  Endpoint value: "< 1000 nM"
- Compound: "COc1ccc2cc(-c3nc4cc(C(=O)N5CCC[C@@H](N)C5)ccn4c3C)n(CC3CC3)c2c1 [Compound 23]"
  Reported property: "IC50"
  Endpoint value: "< 1000 nM"
